# measured_target: SARS-CoV nsp13 helicase (Severe acute respiratory syndrome coronavirus, UniProt P0C6X7)
# measurement_description: biochemical
# condition_parameters: IC50 DNA (nsp13 unwinding)
parameter_measured: pIC50
Scale: pIC50 equals -log10([C]), with [C] in mol/L.

Annotate the molecule C=CCn1c(S)nnc1CSc1ccccc1[N+](=O)[O-] with its measured pIC50.
5.28

---

# measurement_description: in vitro
# condition_parameters: human
parameter_measured: CC50

Annotate the compound C=CCn1c(S)nnc1CSc1ccccc1[N+](=O)[O-] with its measured CC50.
> 250 µM

---

# measured_target: nsp13 (Severe acute respiratory syndrome coronavirus, UniProt P0C6X7)
parameter_measured: Ki (µM)
Just the number in µM, nothing appended.

Annotate the compound C=CCn1c(S)nnc1CSc1ccccc1[N+](=O)[O-] [SSYA10-001] with its measured Ki.
6
